Each entry below carries its recorded % Inhibition.
Tested on: Plasmodium falciparum
ASSAY_PROTOCOL: Primary screen in NF54 nanoGlo assay, in single point, at 2uM, 72h
Assay type: functional, Erythrocyte
PROTOCOL_CONDITIONS: timepoint 72 hour
The campaign covered roughly 150,000 compounds. About 540 (0.36%) showed an effect of 50% or more. For the sample, strong results were picked, then their nearest neighbours and some compounds at random.
Your answer should be a plain number; it is taken to be in %.

Here is how some compounds turned out for % Inhibition.
COMPOUND: CCCc1cc(-c2nc(-c3ccc(-n4nc(C)cc4N)cc3)no2)n(C)n1
UNIT_TAG: %
% Inhibition: 71
//
COMPOUND: CC1CC(C(=O)N2CCN(C(=O)Cc3c[nH]c4ccccc34)CC2)C1 (stereo not given)
UNIT_TAG: %
% Inhibition: -3
//
COMPOUND: CN(Cc1cn(C)nn1)CC1CCOCC1
UNIT_TAG: %
% Inhibition: -11
//
COMPOUND: CC[C@@H](c1nc(-c2ccc(-n3nc(C)cc3N)cc2)no1)n1cccn1
UNIT_TAG: %
% Inhibition: -2

From here, focus on the item given below.
Request: What does the data say about its % Inhibition? Entry: C=C1C(C)C2C(Cc3c[nH]c4ccccc34)NC(=O)C23C(=O)CC(O)C(O)CC(C)C/C=C/C3C1O (stereo not given)
Result: 67

The reported numbers originate from ChEMBL document CHEMBL4888484.
